# Tested on: HL-60
# Test: NCI tumour cell line growth inhibition, 48 h
Active and inactive are the calls of the source. Rule as the data show it: active = GI50 up to about 1.1 µM and inactive = higher.
Outcome (select one): active, inactive

What call does the record list for CCCCSCCC(N)P(=O)(O)O (stereo not given) ?
inactive

Give the logged outcome of this assay for the following compound: CCCC(=O)OC1CC(n2cc(F)c(=O)[nH]c2=O)OC1COP(=O)(OCC(Cl)(Cl)Cl)OCC(Cl)(Cl)Cl (stereo not given)
inactive

Tell me the recorded outcome of this test for `COc1cc(-c2ccc(Nc3ccccc3C(=O)O)c(OC)c2)ccc1Nc1ccccc1C(=O)O` .
inactive

// param item: `NC(=S)SCCC(=O)O` ; yields the recorded call
inactive

Write down the call the test reported for this compound. Item: `COc1cccc(-c2c(C#N)c(N)nc3c2CCS(=O)(=O)c2ccc(C)cc2-3)c1`
inactive

Query: recorded result category for Cn1c2ccccc2c(=O)c2c(O)cc3c(c21)CC(C1(C)CO1)O3 (stereo not given) in this test
active

Dear all, I need the recorded test outcome for `COc1ccc(-c2cc(-c3ccccc3)c3c(n2)-c2ccccc2NC(=O)C3)cc1` , thank you.
inactive

For this compound, state the assay outcome: `CCOC(=O)/C(=N\Nc1ccc(-n2c(C)nc3ccc(Br)cc3c2=O)cc1)C(C)=O`
inactive

Status in this test for O=C1NCC2(CCN(CC3COc4ccccc4O3)CC2)N1c1ccccc1 (stereo not given) ?
inactive

What call does the record list for `COc1cccc2c(=O)oc(-c3ccc(C(C)(C)C)cc3)nc12` ?
inactive
